Where do the numbers come from? From patent US20180244785A1.

- ASSAY_SYSTEM: T1, soluble FGFR1c receptor protein (human, UniProt P11362 141-376)
- T1 sequence: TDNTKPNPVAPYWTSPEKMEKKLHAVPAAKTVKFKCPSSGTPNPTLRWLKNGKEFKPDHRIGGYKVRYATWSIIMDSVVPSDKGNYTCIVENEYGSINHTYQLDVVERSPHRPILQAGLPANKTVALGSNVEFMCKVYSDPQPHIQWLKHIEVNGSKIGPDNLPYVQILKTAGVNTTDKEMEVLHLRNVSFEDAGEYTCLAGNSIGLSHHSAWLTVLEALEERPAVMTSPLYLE
- TEST_DETAILS: BLI Octet RED96, antibody on anti-hIgG Fc tip
REPORTED_PROPERTY: pKd
# pKd = -log10(concentration in molar units)

1. Ab60 (antibody, human IgG2, kappa, V domains shown, format in the assays not spelled out) VH: EVQLLESGGGVVQPGRSLRLSCAASGFDFAGYAMHWVRQAPGKGLEWVAVISYDGSNKYYADSVKGRFTISRDNSKNTLSLQMNSLRVEDTAIYYCVRGAGRGLTYGPDGFDIWGQGTMVTVSS VL: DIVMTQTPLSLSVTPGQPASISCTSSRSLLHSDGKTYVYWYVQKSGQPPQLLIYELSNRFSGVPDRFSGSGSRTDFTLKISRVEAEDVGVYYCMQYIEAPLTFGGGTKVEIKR; 7.84

Look up pKd: Ab19 (antibody, human IgG2, kappa, V domains shown, format in the assays not spelled out) VH: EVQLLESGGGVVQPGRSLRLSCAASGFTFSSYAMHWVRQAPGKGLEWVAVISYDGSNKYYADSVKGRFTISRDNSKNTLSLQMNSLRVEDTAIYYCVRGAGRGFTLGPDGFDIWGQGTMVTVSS VL: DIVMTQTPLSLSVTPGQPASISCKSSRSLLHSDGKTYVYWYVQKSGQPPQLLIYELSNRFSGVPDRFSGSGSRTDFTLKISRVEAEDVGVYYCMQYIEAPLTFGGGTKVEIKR
8.05

Any idea what its pKd is? The binder is Ab90 (antibody, human IgG2, kappa, V domains shown, format in the assays not spelled out) VH: EVQLLESGGGVVQPGRSLRLSCAASGFTFSSYAMHWVRQAPGKGLEWVAVISYDGSNKYYADSVKGRFTISRDNSKNTLSLQMNSLRVEDTAIYYCVRGAGRGYPYGPDGFDIWGQGTMVTVSS VL: DIVMTQTPLSLSVTPGQPASISCTSSRSLLHSDGKTYVYWYVQKSGQPPQLLIYELSNRFSGVPDRFSGSGSRTDFTLKISRVEAEDVGVYYCMQYVEVPLTFGGGTKVEIKR
7.92

Tell me the measured pKd of Vh1 combined with the VL of Ab15 (antibody, V domains shown, captured on anti-human IgG Fc tips) VH: EVQLVESGGGVVQPGRSLRLSCAASGFTFSSYAMHWVRQAPGKGLEWVAVISYDGSNKYYADSVKGRFTISRDNSKNTLYLQMNSLRAEDTAIYYCVRGAGRGYTYGPDGFDIWGQGTMVTVSS VL: DIVMTQTPLSLSVTPGQPASISCTSSRSLLHSDGKTYVYWYVQKSGQPPQLLIYELSNRFSGVPDRFSGSGSRTDFTLKISRVEAEDVGVYYCMQYIEAPLTFGGGTKVEIK , please.
8.13

Recorded pKd of Ab92 (antibody, human IgG2, kappa, V domains shown, format in the assays not spelled out) VH: EVQLLESGGGVVQPGRSLRLSCAASGFTFSSYAMHWVRQAPGKGLEWVAVISYDGSNKYYADSVKGRFTISRDNSKNTLSLQMNSLRVEDTAIYYCVRGAGHGFPTGPDGFDIWGQGTMVTVSS VL: DIVMTQTPLSLSVTPGQPASISCRSSRSLLHSDGKTYVYWYVQKSGQPPQLLIYELSNRFSGVPDRFSGSGSRTDFTLKISRVEAEDVGVYYCMQYVEAPLTFGGGTKVEIKR , please.
7.70

// query pKd value for entry Vh2 combined with the VL of Ab15 (antibody, V domains shown, captured on anti-human IgG Fc tips) VH: EVQLVESGGGVVQPGRSLRLSCAASGFTFSSYAMHWVRQAPGKGLEWVAVISYDGSNKYYADSVKGRFTISRDNSKNTLYLQMNSLRAEDTAVYYCARGAGRGYTYGPDGFDIWGQGTMVTVSS VL: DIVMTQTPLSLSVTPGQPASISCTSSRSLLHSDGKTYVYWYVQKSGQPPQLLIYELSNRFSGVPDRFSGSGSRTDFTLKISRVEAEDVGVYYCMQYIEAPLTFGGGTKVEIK
8.27

Value lookup for pKd; key = Vk11 combined with the VH of Ab15 (antibody, V domains shown, captured on anti-human IgG Fc tips) VH: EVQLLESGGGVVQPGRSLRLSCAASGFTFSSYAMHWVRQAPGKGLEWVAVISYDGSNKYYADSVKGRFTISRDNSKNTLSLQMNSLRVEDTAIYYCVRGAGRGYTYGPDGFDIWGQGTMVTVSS VL: DIVMTQSPLSLPVTPGEPASISCTSSRSLLHSDGKTYVYWYLQKPGQSPQVLIYELSNRFSGVPDRFSGSGSGTDFTLKISRVEAEDVGVYYCMQYIEAPLTFGGGTKVEIK
8.12

Field request: pKd | item: Vk2 combined with the VH of Ab15 (antibody, V domains shown, captured on anti-human IgG Fc tips) VH: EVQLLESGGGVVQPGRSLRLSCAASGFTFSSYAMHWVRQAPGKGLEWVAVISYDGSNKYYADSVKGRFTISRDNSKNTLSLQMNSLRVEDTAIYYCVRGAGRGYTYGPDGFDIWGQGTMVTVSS VL: DIVMTQTPLSLSVTPGQPASISCTSSRSLLHSDGKTYVYWYLQKPGQPPQLLIYELSNRFSGVPDRFSGSGSRTDFTLKISRVEAEDVGVYYCMQYIEAPLTFGGGTKVEIK
8.24

For the binder shown here, Vk7 combined with the VH of Ab15 (antibody, V domains shown, captured on anti-human IgG Fc tips) VH: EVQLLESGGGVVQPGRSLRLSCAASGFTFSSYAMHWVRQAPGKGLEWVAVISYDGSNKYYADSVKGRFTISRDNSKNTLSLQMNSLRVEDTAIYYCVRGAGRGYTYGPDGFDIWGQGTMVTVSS VL: DIVMTQSPLSLPVTPGEPASISCKSSQSLLHSDGKTYLYWYLQKPGQPPQLLIYELSNRFSGVPDRFSGSGSGTDFTLKISRVEAEDVGVYYCMQYIEAPLTFGGGTKVEIK , give the reported pKd.
8.23
